Provide the recorded Met Kinase % Inhibition (P.130) for the entries that follow.
# target of assay: Met receptor (EGFR/Met chimeric cells, EMR) (Homo sapiens, UniProt P08581)
# Construct: expressed in transfected cells; the other entry of the earlier key: EGFR (P00533, Epidermal growth factor receptor)
# Sequence (P08581 with tags, fused parts or gaps): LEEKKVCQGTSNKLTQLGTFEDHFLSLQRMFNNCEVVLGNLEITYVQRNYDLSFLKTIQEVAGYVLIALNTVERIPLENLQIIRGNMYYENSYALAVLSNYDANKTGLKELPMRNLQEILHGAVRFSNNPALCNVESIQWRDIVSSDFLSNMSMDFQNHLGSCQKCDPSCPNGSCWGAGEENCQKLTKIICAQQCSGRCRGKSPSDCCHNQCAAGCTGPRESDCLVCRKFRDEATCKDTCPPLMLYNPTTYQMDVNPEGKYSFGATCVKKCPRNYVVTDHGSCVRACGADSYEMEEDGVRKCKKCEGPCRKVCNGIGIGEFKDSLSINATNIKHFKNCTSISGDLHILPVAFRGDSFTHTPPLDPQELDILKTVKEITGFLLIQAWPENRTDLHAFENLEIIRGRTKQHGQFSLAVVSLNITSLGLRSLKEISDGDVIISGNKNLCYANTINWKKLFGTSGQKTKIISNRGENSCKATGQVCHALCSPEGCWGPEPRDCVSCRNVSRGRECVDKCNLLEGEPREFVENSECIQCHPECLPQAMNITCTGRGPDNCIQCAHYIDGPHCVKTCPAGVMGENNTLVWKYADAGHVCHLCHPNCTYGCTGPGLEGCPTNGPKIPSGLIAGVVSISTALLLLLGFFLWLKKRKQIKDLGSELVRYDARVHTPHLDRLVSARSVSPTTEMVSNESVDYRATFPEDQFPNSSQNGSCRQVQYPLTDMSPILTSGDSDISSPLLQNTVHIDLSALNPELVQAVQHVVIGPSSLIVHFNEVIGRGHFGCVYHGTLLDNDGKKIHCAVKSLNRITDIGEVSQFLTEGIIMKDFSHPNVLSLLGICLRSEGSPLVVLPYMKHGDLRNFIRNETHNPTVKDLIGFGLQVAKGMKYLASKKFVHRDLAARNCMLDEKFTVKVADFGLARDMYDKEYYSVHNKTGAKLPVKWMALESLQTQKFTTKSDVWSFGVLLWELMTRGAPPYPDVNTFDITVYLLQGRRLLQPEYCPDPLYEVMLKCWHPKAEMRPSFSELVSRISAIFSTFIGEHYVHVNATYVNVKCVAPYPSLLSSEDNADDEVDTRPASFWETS
# procedure text: Met Autophosphorylation Assay; further: test concentration or dose not given here
# Assay type: biochemical
# Procedure: Met Autophosphorylation Assay This assay determines Met tyrosine kinase activity by analyzing Met protein tyrosine kinase levels on the Met receptor. a. HNTG (5× stock solution): Dissolve 23.83 g HEPES and 43.83 g NaCl in about 350 ml dH2O. Adjust pH to 7.2 with HCl or NaOH, add 500 ml glycerol and 10 ml Triton X-100, mix, add dH2O to 1 L total volume. […] 2. […] Add ½ the calculated HNTG volume, vortex the tube for 1 min., add the remaining amount of HNTG, vortex for another min. […]
Give bare numbers, in %.

Some solved cases for reference:
O=C1Nc2ccc(CCCl)cc2C1=Cc1cc(F)cc(F)c1 [10735/G04]    28.8
O=C1Nc2ccc(CCCl)cc2C1=Cc1ccc(-c2ccccc2)cc1 [10735/G11]    23.0
CCN(CC)c1ccc(C=C2C(=O)Nc3ccc(I)cc32)c(O)c1 [10734/B05]    67.8

Could you report Met Kinase % Inhibition (P.130) for every entry in the following list?
1. O=C1Nc2ccc(I)cc2C1=Cc1cccc(C(F)(F)F)c1 [10735/B05]
2. Cc1c(Br)ccc2c1C(=Cc1ccc(O)c(Br)c1)C(=O)N2 [10734/C09]
3. Cc1c(Br)ccc2c1C(=Cc1cc(C(F)(F)F)cc(C(F)(F)F)c1)C(=O)N2 [10735/C06]

(A)
[83.7, 88.6, 47.0]

Provide each entry's Met Kinase % Inhibition (P.130) from the list below.
1. O=C1Nc2ccc(S(=O)(=O)N3CCOCC3)cc2C1=Cc1cccc(Cl)c1 [10736/F06]
2. CCOc1cccc(C=C2C(=O)Nc3ccc(I)cc32)c1O [10734/B02]

(A)
49.0
61.9

Provide the reported Met Kinase % Inhibition (P.130) of each entry below, same order.
1. CCN(CC)c1ccc(C=C2C(=O)Nc3c(Br)cc(Br)cc32)c(O)c1 [10734/A05]
2. Cc1ccccc1C=C1C(=O)Nc2ccc(Br)c(C)c21 [10735/C02]
3. Cc1ccc(C=C2C(=O)Nc3ccc(S(=O)(=O)Nc4ccc(C(F)(F)F)cc4)cc32)cc1 [10736/E05]
4. COc1ccc(OC)c(C=C2C(=O)Nc3c(Br)cc(Br)c(C)c32)c1 [10728/H02]
5. Cc1ccc(C=C2C(=O)Nc3c(Br)cc(Br)cc32)cc1 [10736/A05]
6. Cc1c(Br)cc(Br)c2c1C(=Cc1ccc3c(c1)Cc1ccccc1-3)C(=O)N2 [10728/H06]

(A)
1: 69.9; 2: 27.7; 3: 57.6; 4: 25.8; 5: 73.6; 6: 28.5

Provide Met Kinase % Inhibition (P.130) values for the following items, in order.
1. O=C1Nc2ccc(S(=O)(=O)N3CCOCC3)cc2C1=Cc1cc(Cl)ccc1O [10734/F04]
2. O=C1Nc2ccc(S(=O)(=O)N3CCOCC3)cc2C1=Cc1ccc(O)c(Br)c1 [10734/F09]
3. O=C1Nc2ccc(I)cc2C1=Cc1ccc(F)c(F)c1 [10735/B03]
4. Cc1c(Br)cc(Br)c2c1C(=Cc1cc3ccccc3o1)C(=O)N2 [10724/H07]
5. O=C1Nc2ccc(S(=O)(=O)Nc3ccc(C(F)(F)F)cc3)cc2C1=Cc1cc(Br)cc(Br)c1O [10734/E07]

(A)
1: 76.5; 2: 93.9; 3: 73.3; 4: 8.6; 5: 100.8
